- studyTarget: UniProtKB O95622
- Sequence (O95622 whole entry): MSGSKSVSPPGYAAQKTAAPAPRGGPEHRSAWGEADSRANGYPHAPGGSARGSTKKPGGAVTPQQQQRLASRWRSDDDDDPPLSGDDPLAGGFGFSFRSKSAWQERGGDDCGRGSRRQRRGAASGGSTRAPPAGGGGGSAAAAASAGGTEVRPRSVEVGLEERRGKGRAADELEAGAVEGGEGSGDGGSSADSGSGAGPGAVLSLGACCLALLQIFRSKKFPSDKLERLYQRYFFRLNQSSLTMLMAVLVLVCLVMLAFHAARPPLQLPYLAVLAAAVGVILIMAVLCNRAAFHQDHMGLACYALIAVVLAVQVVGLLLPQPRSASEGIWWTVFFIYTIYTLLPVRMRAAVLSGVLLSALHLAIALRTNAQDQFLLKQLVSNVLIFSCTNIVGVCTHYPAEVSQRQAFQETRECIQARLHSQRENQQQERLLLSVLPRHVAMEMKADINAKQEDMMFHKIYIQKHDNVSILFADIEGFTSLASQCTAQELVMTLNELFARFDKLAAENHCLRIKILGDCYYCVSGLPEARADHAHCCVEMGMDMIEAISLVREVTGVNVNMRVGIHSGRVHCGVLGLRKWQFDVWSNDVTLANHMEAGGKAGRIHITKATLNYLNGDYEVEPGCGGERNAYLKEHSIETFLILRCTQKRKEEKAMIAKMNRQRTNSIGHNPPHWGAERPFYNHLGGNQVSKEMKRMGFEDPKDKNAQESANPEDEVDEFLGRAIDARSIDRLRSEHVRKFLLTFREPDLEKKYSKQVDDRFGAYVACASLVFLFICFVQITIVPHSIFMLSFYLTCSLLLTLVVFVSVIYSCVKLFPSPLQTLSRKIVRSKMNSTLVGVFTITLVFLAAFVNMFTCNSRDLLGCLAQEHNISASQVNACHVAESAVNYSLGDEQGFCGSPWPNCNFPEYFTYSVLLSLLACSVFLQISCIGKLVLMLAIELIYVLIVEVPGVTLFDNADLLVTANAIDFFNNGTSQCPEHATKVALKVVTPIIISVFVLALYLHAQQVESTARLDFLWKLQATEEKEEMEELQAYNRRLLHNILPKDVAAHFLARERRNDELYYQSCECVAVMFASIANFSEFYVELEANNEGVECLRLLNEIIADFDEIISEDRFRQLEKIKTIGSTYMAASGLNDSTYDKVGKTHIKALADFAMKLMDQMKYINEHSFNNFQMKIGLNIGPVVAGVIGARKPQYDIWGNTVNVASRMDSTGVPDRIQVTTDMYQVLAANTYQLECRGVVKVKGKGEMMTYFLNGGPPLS
- runDescription: Inhibitory activity against recombinant human adenylate cyclase 5 expressed in HEK293 cells.
observedProperty: IC50

Dear colleague, could you send me IC50 for each of the items below? Thanks.
1. Nc1ncnc2c1ncn2[C@H]1CC[C@H](CC(=O)O)C1
2. Nc1ncnc2c1ncn2[C@@H]1C=C[C@@H](CC(=O)O)C1
3. Nc1ncnc2c1ncn2[C@@H]1CC[C@H](C(=O)NO)C1
4. Nc1ncnc2c1ncn2[C@H]1CC[C@@H](CC(=O)O)C1

Given back:
> 100 µM
> 200 µM
> 70 µM
> 200 µM
